- system-tested: JHAMT2 (Bombyx mori, UniProt A0A8M0FGR8)
- Sequence (A0A8M0FGR8 1-267): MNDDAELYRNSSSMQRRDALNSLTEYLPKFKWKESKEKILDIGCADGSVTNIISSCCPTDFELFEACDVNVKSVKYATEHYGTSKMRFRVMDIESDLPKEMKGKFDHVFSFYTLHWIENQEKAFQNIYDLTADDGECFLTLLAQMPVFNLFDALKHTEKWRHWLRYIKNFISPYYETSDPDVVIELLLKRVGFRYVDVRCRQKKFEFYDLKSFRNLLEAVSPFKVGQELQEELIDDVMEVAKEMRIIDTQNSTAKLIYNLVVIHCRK
result-type: Kd (µM)

| compound | result-type | data-value |
| --- | --- | --- |
| C[S+](CC[C@H](N)C(=O)[O-])C[C@H]1O[C@@H](n2cnc3c(N)ncnc32)[C@H](O)[C@@H]1O (stereo partly shown) | Kd | 42.6 |

====

- system-tested: JHAMT1-D^91A (Bombyx mori, UniProt Q767F1, D91A)
- Sequence (Q767F1 whole entry D91A): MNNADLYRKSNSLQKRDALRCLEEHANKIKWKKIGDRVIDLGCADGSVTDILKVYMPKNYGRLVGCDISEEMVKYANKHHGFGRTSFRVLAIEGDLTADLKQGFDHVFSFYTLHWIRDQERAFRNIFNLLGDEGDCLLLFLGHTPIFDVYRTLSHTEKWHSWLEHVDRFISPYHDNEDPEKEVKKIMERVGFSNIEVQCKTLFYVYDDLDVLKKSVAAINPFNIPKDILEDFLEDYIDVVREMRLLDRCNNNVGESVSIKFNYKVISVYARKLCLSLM
- assay-protocol: fluorescence-binding assay
result-type: Kd (µM)

| compound | data-value |
| --- | --- |
| C[S+](CC[C@H](N)C(=O)[O-])C[C@H]1O[C@@H](n2cnc3c(N)ncnc32)[C@H](O)[C@@H]1O (stereo partly shown) | 229 |

====

Sequence of the target: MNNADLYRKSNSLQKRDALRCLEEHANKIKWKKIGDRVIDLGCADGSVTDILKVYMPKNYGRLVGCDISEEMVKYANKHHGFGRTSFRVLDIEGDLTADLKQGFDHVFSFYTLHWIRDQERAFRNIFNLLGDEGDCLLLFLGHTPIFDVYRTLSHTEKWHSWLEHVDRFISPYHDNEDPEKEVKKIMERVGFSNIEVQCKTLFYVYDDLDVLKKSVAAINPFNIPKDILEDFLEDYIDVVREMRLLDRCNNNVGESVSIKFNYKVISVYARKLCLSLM

| molecule | quantity-unit | Kd |
| --- | --- | --- |
| C[S+](CC[C@H](N)C(=O)[O-])C[C@H]1O[C@@H](n2cnc3c(N)ncnc32)[C@H](O)[C@@H]1O (stereo partly shown) | µM | 38.7 |

====

- system-tested: JHAMT2-T^113A (Bombyx mori, UniProt A0A8M0FGR8, T113A)
- assay-protocol: fluorescence-binding assay

| molecule | Kd |
| --- | --- |
| C[S+](CC[C@H](N)C(=O)[O-])C[C@H]1O[C@@H](n2cnc3c(N)ncnc32)[C@H](O)[C@@H]1O (stereo partly shown) | 144 µM |

====

- system-tested: JHAMT1-T^112A (Bombyx mori, UniProt Q767F1, T112A)
- Sequence (Q767F1 whole entry T112A): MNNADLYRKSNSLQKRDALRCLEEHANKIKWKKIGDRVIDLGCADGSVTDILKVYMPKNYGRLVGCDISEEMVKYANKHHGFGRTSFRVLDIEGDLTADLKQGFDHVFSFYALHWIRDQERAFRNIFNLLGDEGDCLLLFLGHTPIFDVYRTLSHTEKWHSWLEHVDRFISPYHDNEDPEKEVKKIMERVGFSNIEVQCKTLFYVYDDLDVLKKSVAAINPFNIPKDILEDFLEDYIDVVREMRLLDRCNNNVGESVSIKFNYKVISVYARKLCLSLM
- assay-protocol: fluorescence-binding assay
result-type: Kd (µM)

| molecule | data-value |
| --- | --- |
| C[S+](CC[C@H](N)C(=O)[O-])C[C@H]1O[C@@H](n2cnc3c(N)ncnc32)[C@H](O)[C@@H]1O (stereo partly shown) | 191 |
